Data credit: patent US20260041640A1

Assay: First-in-human clinical study: plasma and whole blood PK of INX-315 (oral QD, ASD tablet)
Type: in vivo
Conditions: human, whole blood, oral, 100 mg, whole blood, 100 mg QD, Day 1 observed, mean of first two patients; read-out: Cmax
Endpoint label: Cmax (ng/mL)
# number only, unit ng/mL dropped from output

Name the reported Cmax value associated with the compound NS(=O)(=O)c1ccc(Nc2ncc3cc4n(c3n2)C2(CCCCC2)C(=O)NN4)cc1
3000

* * *

Assay: First-in-human clinical study: plasma and whole blood PK of INX-315 (oral QD, ASD tablet)
Format: in vivo
Settings: human, plasma, oral, 300 mg, plasma, 300 mg QD cohort, Day 1, individual subjects; read-out: t1/2 (converted)
Endpoint label: half-life (h)
Supply the numeric figure in h, leaving out any unit text.

Consider the compound NS(=O)(=O)c1ccc(Nc2ncc3cc4n(c3n2)C2(CCCCC2)C(=O)NN4)cc1 and give its measured half-life.
17.3

* * *

Experiment: First-in-human clinical study: plasma and whole blood PK of INX-315 (oral QD, ASD tablet)
Type: in vivo
Conditions: human, whole blood, oral, 100 mg, whole blood, 100 mg QD, Day 1 observed, mean of first two patients; read-out: AUC
Endpoint label: AUC (ng·h/mL)
Just the number please, in ng·h/mL, no unit attached.

What does the record list as AUC for NS(=O)(=O)c1ccc(Nc2ncc3cc4n(c3n2)C2(CCCCC2)C(=O)NN4)cc1 [INX-315] ?
50600

* * *

Assay: Aqueous solubility of INX-315
Type: physicochemical
Conditions: 1% SLS in water, aqueous with cosolvent or surfactant or cyclodextrin, 1% SLS in H2O; read-out: Dissolved Drug Solubility
Endpoint label: solubility (µg/mL)
Return type: number; implicit unit µg/mL.

So what's the measured solubility for this one? NS(=O)(=O)c1ccc(Nc2ncc3cc4n(c3n2)C2(CCCCC2)C(=O)NN4)cc1 [INX-315]
40

* * *

Test: First-in-human clinical study: plasma and whole blood PK of INX-315 (oral QD, ASD tablet)
Format: in vivo
Conditions: human, plasma, oral, 300 mg, plasma, 300 mg QD cohort, Day 15, individual subjects; read-out: Tmax
Endpoint label: Tmax (h)
The response must be a number in h with no trailing unit.

I would be grateful if you could share the reported Tmax for NS(=O)(=O)c1ccc(Nc2ncc3cc4n(c3n2)C2(CCCCC2)C(=O)NN4)cc1 [INX-315] .
1

* * *

Experiment: First-in-human clinical study: plasma and whole blood PK of INX-315 (oral QD, ASD tablet)
Format: in vivo
Details: human, plasma, po, 100 mg, plasma, 100 mg QD cohort, Day 1, median; read-out: AUClast, Median
Endpoint label: AUC(0-t) (ng·h/mL)
Enter your answer as a number in ng·h/mL; do not include the unit.

Report AUC(0-t) for NS(=O)(=O)c1ccc(Nc2ncc3cc4n(c3n2)C2(CCCCC2)C(=O)NN4)cc1 please.
2280

* * *

Test: First-in-human clinical study: plasma and whole blood PK of INX-315 (oral QD, ASD tablet)
Format: in vivo
Conditions: human, plasma, oral, 100 mg, plasma, 100 mg QD, Day 1 observed, mean of first two patients; read-out: Cmin
Endpoint label: concentration at 1 day (ng/mL)
Reply with just the number (in ng/mL).

Entry NS(=O)(=O)c1ccc(Nc2ncc3cc4n(c3n2)C2(CCCCC2)C(=O)NN4)cc1 has what concentration at 1 day?
103

* * *

Assay: First-in-human clinical study: plasma and whole blood PK of INX-315 (oral QD, ASD tablet)
Format: in vivo
Details: human, whole blood, oral, 100 mg, whole blood, 100 mg QD, Day 15, individual patients; read-out: t1/2 (converted)
Endpoint label: half-life

# lookup: half-life of NS(=O)(=O)c1ccc(Nc2ncc3cc4n(c3n2)C2(CCCCC2)C(=O)NN4)cc1 [INX-315]
21.6 h

* * *

Test: Aqueous solubility of INX-315
Format: physicochemical
Details: 0.01 N HCl, simulated gastric fluid, 0.01N HCl; read-out: Dissolved Drug Solubility
Endpoint label: solubility (µg/mL)
Field format: number, assumed µg/mL, no unit text.

What measured solubility goes with NS(=O)(=O)c1ccc(Nc2ncc3cc4n(c3n2)C2(CCCCC2)C(=O)NN4)cc1 ?
269

* * *

Assay: First-in-human clinical study: plasma and whole blood PK of INX-315 (oral QD, ASD tablet)
Assay type: in vivo
Settings: human, plasma, oral, 200 mg, plasma, 200 mg QD, Day 1, Cohort 2; read-out: Cmax, median
Endpoint label: Cmax (ng/mL)
Report the value in ng/mL with no unit label.

Tell me the measured Cmax of NS(=O)(=O)c1ccc(Nc2ncc3cc4n(c3n2)C2(CCCCC2)C(=O)NN4)cc1 , please.
577

* * *

Assay: Plasma protein binding, dog
Format: in vitro ADME
Endpoint label: fraction unbound

Return reported fraction unbound; argument: NS(=O)(=O)c1ccc(Nc2ncc3cc4n(c3n2)C2(CCCCC2)C(=O)NN4)cc1
0.04

* * *

Assay: First-in-human clinical study: plasma and whole blood PK of INX-315 (oral QD, ASD tablet)
Type: in vivo
Details: human, plasma, po, 100 mg, plasma, 100 mg QD cohort, Day 15, geometric mean; read-out: AUClast, Geometric Mean
Endpoint label: AUC(0-t)
Provide the measurement as a number trailed by its unit.

Which value of AUC(0-t) has been reported for NS(=O)(=O)c1ccc(Nc2ncc3cc4n(c3n2)C2(CCCCC2)C(=O)NN4)cc1 in the records?
3290 ng·h/mL

* * *

Assay: First-in-human clinical study: plasma and whole blood PK of INX-315 (oral QD, ASD tablet)
Format: in vivo
Details: human, plasma, oral, 100 mg, plasma, 100 mg QD, Day 1, average of five human patients (Example 10); read-out: AUC
Endpoint label: AUC (ng·h/mL)
Answer in ng·h/mL, number only, no unit symbol.

I'd like to know its AUC. The compound in question is NS(=O)(=O)c1ccc(Nc2ncc3cc4n(c3n2)C2(CCCCC2)C(=O)NN4)cc1
2020

* * *

Test: First-in-human clinical study: plasma and whole blood PK of INX-315 (oral QD, ASD tablet)
Assay type: in vivo
Details: human, plasma, oral, 300 mg, plasma, 300 mg QD cohort, Day 1, individual subjects; read-out: AUClast
Endpoint label: AUC(0-t) (ng·h/mL)
The reply should contain only the number, in ng·h/mL.

Record request: AUC(0-t) value, item NS(=O)(=O)c1ccc(Nc2ncc3cc4n(c3n2)C2(CCCCC2)C(=O)NN4)cc1
10200

* * *

Assay: First-in-human clinical study: plasma and whole blood PK of INX-315 (oral QD, ASD tablet)
Format: in vivo
Details: human, whole blood, oral, 100 mg, whole blood, 100 mg QD, Day 1, Cohort 1 (Table 28); read-out: t1/2, geometric mean (converted)
Endpoint label: half-life (h)
Output spec: scalar in h, unitless text.

Can you share its half-life? I mean this molecule: NS(=O)(=O)c1ccc(Nc2ncc3cc4n(c3n2)C2(CCCCC2)C(=O)NN4)cc1
17.9

* * *

Experiment: First-in-human clinical study: plasma and whole blood PK of INX-315 (oral QD, ASD tablet)
Assay type: in vivo
Conditions: human, plasma, oral, 100 mg, plasma, 100 mg QD, Day 1, individual patients; read-out: t1/2 (converted)
Endpoint label: half-life
Answer shape: numeric part, then the unit.

Requested field: half-life. Item: NS(=O)(=O)c1ccc(Nc2ncc3cc4n(c3n2)C2(CCCCC2)C(=O)NN4)cc1 [INX-315]
15.1 h

* * *

Assay: First-in-human clinical study: plasma and whole blood PK of INX-315 (oral QD, ASD tablet)
Format: in vivo
Conditions: human, plasma, oral, 200 mg, plasma, 200 mg QD, Day 15, Cohort 2; read-out: AUClast, median
Endpoint label: AUC(0-t)
Number first, unit second: that is the form wanted.

// AUC(0-t) lookup, key: NS(=O)(=O)c1ccc(Nc2ncc3cc4n(c3n2)C2(CCCCC2)C(=O)NN4)cc1
13700 ng·h/mL

* * *

Experiment: First-in-human clinical study: plasma and whole blood PK of INX-315 (oral QD, ASD tablet)
Assay type: in vivo
Conditions: human, plasma, oral, 100 mg, plasma, 100 mg QD, Day 1, Cohort 1 (Table 27); read-out: Cmax, geometric mean
Method: All INX-315 tablets were taken at approximately the same time(s) each day. Samples will also be collected pre-dose on Cycle 1 Days 2, 8, 16, and Day 22, and pre-dose on Day 1 of each subsequent cycle. Standard non-compartmental PK parameters were estimated. […] PK parameters will be summarized descriptively by dosing cohort. […] Dose proportionality will be assessed for AUC and Cmax using a power model. […] Patients were upgraded to the 200 mg QD dose level and PK/PD plasma parameters were measured (FIG. 18A). […]
Endpoint label: Cmax (ng/mL)
Only the number, expressed in ng/mL, is required.

I have this compound here, NS(=O)(=O)c1ccc(Nc2ncc3cc4n(c3n2)C2(CCCCC2)C(=O)NN4)cc1 , and I need its recorded Cmax.
193
